# measurement protocol: Determination of the log P values by HPLC (formic acid method)
# Assay type: physicochemical
# protocol conditions: reversed-phase column (C 18), acidic range (pH 3.4), 55° C.
# Protocol: 1) Description of Method for Determination of the Log P Values (Formic Acid Method) Eluents for determination in the acidic range (pH 3.4): Eluent A: acetonitrile+1 ml of formic acid/liter. Eluent B: water+0.9 ml of formic acid/liter. The lambda max values were determined in the maxima of the chromatographic signals using the UV spectra from 200 nm to 400 nm.
Threshold 3. log P below it: satisfied. log P at it or above: not satisfied.

Examples from the recorded data:
1. CCc1ccccc1C(=O)Nc1ccn(-c2ccccc2Cl)n1 [Compound I-1-12] = not satisfied
2. Cn1nc(C(C)(C)C)c([N+](=O)[O-])c1C(=O)Nc1ccn(-c2c(F)cccc2F)n1 [Compound I-1-292] = not satisfied
3. O=C(Nc1ccn(-c2cc(F)ccc2F)n1)c1ccsc1I [Compound I-1-219] = not satisfied
4. O=C(c1ccccc1Cl)N(C(=O)c1ccccc1Cl)c1nn(-c2ccccc2Br)nc1Cl [Compound I-2-30] = not satisfied

Is log P of COc1cccc(Cl)c1C(=O)Nc1ccn(-c2c(F)cccc2F)n1 [Compound I-1-271] strictly below 3? satisfied

Is log P of O=C(Nc1nn(-c2ncccc2Cl)nc1Cl)c1ccccc1I [Compound I-2-60] strictly below 3? satisfied

Is log P of O=C(Nc1ccn(-c2ncccc2F)n1)c1cccnc1Br [Compound I-1-578] strictly below 3? satisfied

---

# measurement protocol: Determination of the log P values by HPLC (formic acid method)
# Format: physicochemical
# protocol conditions: reversed-phase column (C 18), acidic range (pH 3.4), 55° C.
Threshold 3. log P below it: Criterion met. log P at it or above: Criterion not met.

1) O=[N+]([O-])c1ccn(-c2c(F)cccc2F)c1 = Criterion met
2) O=C(Nc1ccn(-c2ccccc2Cl)n1)c1c(F)cccc1Cl = Criterion met
3) O=C(Nc1ccn(-c2ncc(F)cc2Cl)n1)c1ccccc1C(F)(F)F = Criterion met
4) O=C(c1ccccc1C(F)(F)F)N(C(=O)c1ccccc1C(F)(F)F)c1cnn(-c2ncccc2Cl)n1 = Criterion not met
5) Cc1nn(C)c(C)c1C(=O)Nc1ccn(-c2ccccc2C(F)(F)F)n1 = Criterion met
6) Cc1ccc(-n2ccc(NC(=O)c3ccccc3Cl)n2)c(Cl)c1 = Criterion not met

For the next question, use this compound.
Is log P of O=C(Nc1ccn(-c2ncccc2Cl)n1)c1ccccc1I strictly below 3? Criterion met

---

Here, each record is paired with measured log P data.
# measurement protocol: Determination of the log P values by HPLC (formic acid method)
# Assay type: physicochemical
# protocol conditions: reversed-phase column (C 18), acidic range (pH 3.4), 55° C.
# Procedure: 1) Description of Method for Determination of the Log P Values (Formic Acid Method) Eluents for determination in the acidic range (pH 3.4): Eluent A: acetonitrile+1 ml of formic acid/liter. Eluent B: water+0.9 ml of formic acid/liter. The lambda max values were determined in the maxima of the chromatographic signals using the UV spectra from 200 nm to 400 nm.

Quick note, log P for O=C(Nc1ccn(-c2c(F)cccc2F)n1)c1c(Cl)cccc1Cl landed at 2.72

Quick note, log P for O=C(Nc1ccn(-c2ncccc2F)n1)c1ccccc1Br landed at 2.12

Quick note, log P for Cc1cn(-c2ccccc2Cl)nc1NC(=O)c1cccnc1C(F)(F)F landed at 2.53

Quick note, log P for O=C(Nc1ccn(-c2c(F)cccc2F)n1)c1c(Cl)cccc1C(F)(F)F landed at 2.86

Quick note, log P for O=C(Nc1nn(-c2ncccc2F)c2ccccc12)c1ccccc1Br landed at 2.67
